target: UniProtKB O15151
assay_name: Competitive fluorescence polarization assay for MDMX
Assay type: binding
experimental_parameters: competitive FP assay, read-out: Ki (MDMX)
Where a SMILES comes first, the peptide text is derived from it. Bridges are numbered along the chain shown (N, C = ends). [ ]: non-standard residue; d: D form. R8 = C=CCCCCCC[C@@](C)(N)C(=O)O; Cba = N[C@@H](CC1CCC1)C(=O)O; S5 = C=CCCC[C@](C)(N)C(=O)O; Nle = CCCC[C@H](N)C(=O)O
quantity_kind: Ki

Worked examples follow.
INSERT INTO measurements (molecule, recorded_value) VALUES
  ('CCCC[C@H](NC(=O)[C@H](Cc1c[nH]c2ccccc12)NC(=O)[C@H](C)NC(=O)[C@]1(C)CCCC=CCCCCCC[C@@](C)(NC(=O)[C@H](Cc2ccccc2)NC(=O)[C@@H](NC(=O)[C@H](CCC(=O)O)NC(C)=O)[C@@H](C)O)C(=O)N[C@@H](CCC(=O)O)C(=O)N[C@@H](Cc2ccc(O)cc2)C(=O)N[C@@H](Cc2c[nH]c3ccccc23)C(=O)N[C@@H](C)C(=O)N[C@@H](CCC(N)=O)C(=O)N[C@@H](CC(C)C)C(=O)N1)C(=O)N[C@H](C)C(N)=O [compound 278] (Ac-ETF[R8]EYWAQL[S5]AW[Nle][dA]-NH2; staple 4-11)', '< 0.01 µM'),
  ('CC(=O)N[C@@H](C)C(=O)N[C@@H](C)C(=O)N[C@@H](CC(C)C)C(=O)N[C@H](C(=O)N[C@@H](Cc1ccccc1)C(=O)N[C@]1(C)CCCCCCC=CCCC[C@@](C)(C(=O)N[C@@H](CO)C(=O)N[C@@H](C)C(=O)N[C@@H](C)C(=O)N[C@@H](C)C(=O)N[C@H](C)C(N)=O)NC(=O)[C@H](CC2CCC2)NC(=O)[C@H](CCC(N)=O)NC(=O)[C@H](C)NC(=O)[C@H](Cc2c[nH]c3ccccc23)NC(=O)[C@H](Cc2ccc(O)cc2)NC(=O)[C@H](CCC(=O)O)NC1=O)[C@@H](C)O (single isomer, unassigned)', '0.01 to 0.1 µM');

For record CCCCCCNC(=O)[C@H](C)NC(=O)[C@H](CCCC)NC(=O)[C@H](C)NC(=O)[C@H](C)NC(=O)[C@]1(C)CCCC=CCCCCCC[C@@](C)(NC(=O)[C@H](Cc2ccccc2)NC(=O)[C@@H](NC(=O)[C@H](CC(C)C)NC(C)=O)[C@@H](C)O)C(=O)N[C@@H](C)C(=O)N[C@@H](Cc2ccc(O)cc2)C(=O)N[C@@H](Cc2c[nH]c3ccccc23)C(=O)N[C@@H](C)C(=O)N[C@@H](CCC(N)=O)C(=O)N[C@@H](CC(C)C)C(=O)N1 (single isomer, unassigned) the listed Ki is 0.01 to 0.1 µM

For record CC(=O)N[C@@H](CC(C)C)C(=O)N[C@H](C(=O)N[C@@H](Cc1ccccc1)C(=O)N[C@]1(C)CCCCCCC=CCCC[C@@](C)(C(=O)N[C@@H](CO)C(=O)N[C@@H](C)C(=O)N[C@@H](Cc2ccccc2)C(=O)N[C@H](C)C(N)=O)NC(=O)[C@H](CC2CCC2)NC(=O)[C@H](CCC(N)=O)NC(=O)[C@H](C)NC(=O)[C@H](Cc2c[nH]c3ccccc23)NC(=O)[C@H](Cc2ccc(O)cc2)NC(=O)[C@H](CCC(=O)O)NC1=O)[C@@H](C)O [compound 257] (Ac-LTF[R8]EYWAQ[Cba][S5]SAF[dA]-NH2; staple 4-11) the listed Ki is 0.01 to 0.1 µM

* * *

This section presents molecules with their documented pIC50 values.
target: MDMX (Homo sapiens, UniProt O15151)
Sequence (O15151 1-125): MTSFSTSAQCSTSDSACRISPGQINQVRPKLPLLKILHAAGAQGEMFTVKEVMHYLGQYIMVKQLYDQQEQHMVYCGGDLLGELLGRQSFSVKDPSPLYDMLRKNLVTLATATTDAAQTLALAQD
assay_name: Competitive fluorescence polarization assay for MDMX
Format: binding
experimental_parameters: competitive FP assay, read-out: IC50 (MDMX)
pIC50: −log10 of the molar value. Where a SMILES comes first, the peptide text is derived from it. Bridges are numbered along the chain shown (N, C = ends). [ ]: non-standard residue; d: D form. R8 = C=CCCCCCC[C@@](C)(N)C(=O)O; Cba = N[C@@H](CC1CCC1)C(=O)O; S5 = C=CCCC[C@](C)(N)C(=O)O; Ac3c = NC1(C(=O)O)CC1

INSERT INTO results (molecule, recorded_value) VALUES
  ('CC(=O)N[C@@H](CC(C)C)C(=O)N[C@H](C(=O)N[C@@H](Cc1ccccc1)C(=O)N[C@]1(C)CCCCCCC=CCCC[C@@](C)(C(=O)N[C@@H](CO)C(=O)N[C@@H](C)C(=O)N[C@@H](CCCNC(=N)N)C(N)=O)NC(=O)[C@H](CC2CCC2)NC(=O)[C@H](CCC(N)=O)NC(=O)[C@H](C)NC(=O)[C@H](Cc2c[nH]c3ccccc23)NC(=O)[C@H](Cc2ccc(O)cc2)NC(=O)[C@H](CCC(=O)O)NC1=O)[C@@H](C)O [compound 366] (Ac-LTF[R8]EYWAQ[Cba][S5]SAR-NH2; staple 4-11)', '7.00 to 8.00'),
  ('CC(=O)N[C@@H](CC(C)C)C(=O)N[C@H](C(=O)N[C@@H](Cc1ccccc1)C(=O)N[C@]1(C)CCCCCCC=CCCC[C@@](C)(C(=O)N[C@@H](CO)C(=O)N[C@@H](C)C(=O)N[C@@H](C)C(N)=O)NC(=O)[C@H](CC2CCC2)NC(=O)[C@H](CCCNC(=N)N)NC(=O)[C@H](C)NC(=O)[C@H](Cc2c[nH]c3ccccc23)NC(=O)[C@H](Cc2ccc(O)cc2)NC(=O)[C@H](CCC(=O)O)NC1=O)[C@@H](C)O [compound 363] (Ac-LTF[R8]EYWAR[Cba][S5]SAA-NH2; staple 4-11)', '7.00 to 8.00'),
  ('CC[C@H](C)[C@H](NC(=O)[C@H](C)NC(=O)[C@H](C)NC(=O)[C@]1(C)CCCC=CCCCCCC[C@@](C)(NC(=O)[C@H](Cc2ccccc2)NC(C)=O)C(=O)N[C@@H](C)C(=O)N[C@@H](Cc2ccc(O)cc2)C(=O)N[C@@H](Cc2c[nH]c3ccccc23)C(=O)N[C@@H](CCC(=O)O)C(=O)NC2(CC2)C(=O)N[C@@H](CC(C)C)C(=O)N1)C(N)=O [compound 19] (Ac-F[R8]AYWE[Ac3c]L[S5]AAI-NH2; staple 2-9)', '7.00 to 8.00'),
  ('CC[C@H](C)[C@H](NC(=O)[C@H](C)NC(=O)[C@H](C)NC(=O)[C@]1(C)CCCC=CCCCCCC[C@@](C)(NC(=O)[C@H](Cc2ccccc2)NC(=O)[C@@H](NC(=O)[C@H](CC(C)C)NC(C)=O)[C@@H](C)O)C(=O)N[C@@H](CCC(=O)O)C(=O)N[C@@H](Cc2ccc(O)cc2)C(=O)N[C@@H](Cc2c[nH]c3ccccc23)C(=O)N[C@@H](C)C(=O)N[C@@H](CCC(N)=O)C(=O)N[C@@H](CC2CCC2)C(=O)N1)C(=O)N[C@H](C)C(N)=O [compound 247] (Ac-LTF[R8]EYWAQ[Cba][S5]AAI[dA]-NH2; staple 4-11)', '7.00 to 8.00');

Measured pIC50 for this entry CC(=O)N[C@@H](CC(C)C)C(=O)N[C@H](C(=O)N[C@@H](Cc1ccccc1)C(=O)N[C@]1(C)CCCCCCC=CCCC[C@@](C)(C(=O)N[C@@H](C)C(=O)N[C@@H](C)C(=O)N[C@H](C(=O)N[C@H](C)C(N)=O)C(C)C)NC(=O)[C@H](CC(C)C)NC(=O)[C@H](CCC(N)=O)NC(=O)[C@H](C)NC(=O)[C@H](Cc2c[nH]c3ccccc23)NC(=O)[C@H](Cc2ccc(O)cc2)NC(=O)[C@H](C)NC1=O)[C@@H](C)O (single isomer, unassigned) on MDMX (Homo sapiens, UniProt O15151): 6.00 to 7.00

* * *

target: MDM2 (Homo sapiens, UniProt Q00987)
Sequence (Q00987 1-125): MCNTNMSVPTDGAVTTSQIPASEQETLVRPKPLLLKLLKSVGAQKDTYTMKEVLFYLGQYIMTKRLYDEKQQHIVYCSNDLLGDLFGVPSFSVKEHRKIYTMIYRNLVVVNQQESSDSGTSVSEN
assay_name: Competitive fluorescence polarization assay for MDM2
Format: binding
experimental_parameters: competitive FP assay, MDM2; read-out: IC50 (MDM2)
Where a SMILES comes first, the peptide text is derived from it. Bridges are numbered along the chain shown (N, C = ends). [ ]: non-standard residue; d: D form. R8 = C=CCCCCCC[C@@](C)(N)C(=O)O; Cba = N[C@@H](CC1CCC1)C(=O)O; S5 = C=CCCC[C@](C)(N)C(=O)O; Nle = CCCC[C@H](N)C(=O)O
quantity_kind: IC50

For record CCCC[C@H](NC(=O)[C@H](C)NC(=O)[C@H](CO)NC(=O)[C@]1(C)CCCC=CCCCCCC[C@@](C)(NC(=O)[C@H](Cc2ccccc2)NC(=O)[C@@H](NC(=O)[C@H](CC(C)C)NC(C)=O)[C@@H](C)O)C(=O)N[C@@H](CCC(=O)O)C(=O)N[C@@H](Cc2ccc(O)cc2)C(=O)N[C@@H](Cc2c[nH]c3ccccc23)C(=O)N[C@@H](Cc2c[nH]c3ccccc23)C(=O)N[C@@H](CCC(N)=O)C(=O)N[C@@H](CC2CCC2)C(=O)N1)C(=O)N[C@@H](C)C(N)=O [compound 246] (Ac-LTF[R8]EYWWQ[Cba][S5]SA[Nle]A-NH2; staple 4-11) the listed IC50 is 10 to 100 nM

For record CCCCCCNC(=O)[C@H](C)NC(=O)[C@H](CCCC)NC(=O)[C@H](C)NC(=O)[C@H](C)NC(=O)[C@]1(C)CCCC=CCCCCCC[C@@](C)(NC(=O)[C@H](Cc2ccccc2)NC(=O)[C@@H](NC(=O)[C@H](CC(C)C)NC(C)=O)[C@@H](C)O)C(=O)N[C@@H](C)C(=O)N[C@@H](Cc2ccc(O)cc2)C(=O)N[C@@H](Cc2c[nH]c3ccccc23)C(=O)N[C@@H](C)C(=O)N[C@@H](CCC(N)=O)C(=O)N[C@@H](CC(C)C)C(=O)N1 (single isomer, unassigned) the listed IC50 is 100 to 1000 nM

These measurements were taken from patent US8927500B2.
